Biological target: T1, Human CD24 (human, UniProt P25063 27-59, limits assumed)
T1 chain (looked up): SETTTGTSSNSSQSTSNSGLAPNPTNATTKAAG
Experiment: affinity ranking; antibody as ligand, Human CD24 as analyte
readout.kind: kon (M⁻¹ s⁻¹)
# output: bare number, implied unit M⁻¹ s⁻¹

binder	kon (M⁻¹ s⁻¹)
VH1 + VL2 (humanized 4451) (antibody, V domains shown, IgG expressed in HEK293) VH: QVQLVQSGAEVKKPGASVKVSCKASGYDFTGYHMNWVRQAPGQGLEWMGEINPITSDKTFNQKFKSRVTMTRDTSISTAYMELSRLRSDDTAVYYCARRDYGTSLDYWGQGTTVTVSS VL: DIQLTQSPSFLSASVGDRVTITCRASKSISKYLAWYQQKPGKAPRLLIYAGSTLHSGVPSRFRGSGSGTEFTLTISSLQPEDFATYYCQQHNEYPITFGQGTKLEIK	1.74e+06
VH1 + VL1 (humanized 4451) (antibody, V domains shown, IgG expressed in HEK293) VH: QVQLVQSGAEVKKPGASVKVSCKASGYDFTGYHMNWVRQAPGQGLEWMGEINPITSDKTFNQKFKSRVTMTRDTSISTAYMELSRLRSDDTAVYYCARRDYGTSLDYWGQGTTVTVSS VL: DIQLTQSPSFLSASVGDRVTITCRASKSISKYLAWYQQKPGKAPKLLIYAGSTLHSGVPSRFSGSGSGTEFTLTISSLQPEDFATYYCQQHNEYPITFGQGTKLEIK	958000
VH4 + VL2 (humanized 4451) (antibody, V domains shown, IgG expressed in HEK293) VH: QVQLVQSGAEVKKPGASVKVSCKASGYDFTGYHMNWVKQAPGQGLEWIGEINPITSDKTFNQKFKSRATMTVDRSISTAYMELSRLRSDDTAVYYCARRDYGTSLDYWGQGTTVTVSS VL: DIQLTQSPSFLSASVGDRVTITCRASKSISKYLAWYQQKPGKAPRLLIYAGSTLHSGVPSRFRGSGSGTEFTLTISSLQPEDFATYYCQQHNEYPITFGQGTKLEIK	1.28e+06

Answer with reported kon of VH4 + VL4 (humanized 4451) (antibody, V domains shown, IgG expressed in HEK293) VH: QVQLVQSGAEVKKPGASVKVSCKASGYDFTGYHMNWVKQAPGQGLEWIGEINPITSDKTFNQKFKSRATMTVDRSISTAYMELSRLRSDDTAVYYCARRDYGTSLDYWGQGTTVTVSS VL: DIQLTQSPSFLSASVGDRVTIYCRASKSISKYLAWYQQKPGKAPRLLIYAGSTLHSGIPSRFRGSGSGTEFTLTISSLQPEDFATYYCQQHNEYPITFGQGTKLEIK
1.53e+06

Answer with reported kon of VH3 + VL3 (humanized 4451) (antibody, V domains shown, IgG expressed in HEK293) VH: QVQLVQSGAEVKKPGASVKVSCKASGYDFTGYHMNWVRQAPGQGLEWIGEINPITSDKTFNQKFKSRATMTVDTSISTAYMELSRLRSDDTAVYYCARRDYGTSLDYWGQGTTVTVSS VL: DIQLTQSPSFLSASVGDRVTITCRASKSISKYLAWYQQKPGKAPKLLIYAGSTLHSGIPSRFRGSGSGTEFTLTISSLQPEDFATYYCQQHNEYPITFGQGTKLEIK
1.13e+06
